B1: TPR t1 (parent)
chain: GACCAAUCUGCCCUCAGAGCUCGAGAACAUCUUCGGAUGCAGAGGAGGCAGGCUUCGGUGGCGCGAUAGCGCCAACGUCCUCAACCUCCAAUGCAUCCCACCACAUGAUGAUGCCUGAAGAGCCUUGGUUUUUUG

Variants of: B1
Test: polymerase ribozyme fitness, log enrichment relative to wild type (log ratio); higher = more active; in vitro selection for triplet polymerase activity
Reported values of polymerase ribozyme fitness (log ratio) for individual entries
Could you keep your reply to the number by itself?

| mutant.code | measured.result |
| --- | --- |
| A27C G51A C76G | -5.75 |
| U112A C123A | 1.45 |
| C15A C82G G117C G120C | -5.78 |

Quick one: polymerase ribozyme fitness (log ratio) of A37C G42U C88A A111G ?
-4.05

Quick one: polymerase ribozyme fitness (log ratio) of C11U A100C G110A ?
-2.68

Quick one: polymerase ribozyme fitness (log ratio) of G48U G69A G135U ?
-5.98

Quick one: polymerase ribozyme fitness (log ratio) of C11G G107C U112C C123U G128C ?
-5.88

Quick one: polymerase ribozyme fitness (log ratio) of G42U C123A ?
-1.18

Quick one: polymerase ribozyme fitness (log ratio) of G63A U132A ?
-0.756

Quick one: polymerase ribozyme fitness (log ratio) of U78A C89U C104U ?
-1.1

Quick one: polymerase ribozyme fitness (log ratio) of C70U G107C G122A ?
-5.12

Quick one: polymerase ribozyme fitness (log ratio) of U9C G52A C89A G117A ?
-1.63
